target: serotonin reuptake sites (Rattus norvegicus); construct: from tissue; host or cells: rat cortical membranes (from the title of the cited method only); assay: In vitro affinity for serotonin reuptake sites ([3H]-paroxetine binding assay); details: read-out: 5-HT reuptake pKi (converted)
Sequence (P31652 whole entry): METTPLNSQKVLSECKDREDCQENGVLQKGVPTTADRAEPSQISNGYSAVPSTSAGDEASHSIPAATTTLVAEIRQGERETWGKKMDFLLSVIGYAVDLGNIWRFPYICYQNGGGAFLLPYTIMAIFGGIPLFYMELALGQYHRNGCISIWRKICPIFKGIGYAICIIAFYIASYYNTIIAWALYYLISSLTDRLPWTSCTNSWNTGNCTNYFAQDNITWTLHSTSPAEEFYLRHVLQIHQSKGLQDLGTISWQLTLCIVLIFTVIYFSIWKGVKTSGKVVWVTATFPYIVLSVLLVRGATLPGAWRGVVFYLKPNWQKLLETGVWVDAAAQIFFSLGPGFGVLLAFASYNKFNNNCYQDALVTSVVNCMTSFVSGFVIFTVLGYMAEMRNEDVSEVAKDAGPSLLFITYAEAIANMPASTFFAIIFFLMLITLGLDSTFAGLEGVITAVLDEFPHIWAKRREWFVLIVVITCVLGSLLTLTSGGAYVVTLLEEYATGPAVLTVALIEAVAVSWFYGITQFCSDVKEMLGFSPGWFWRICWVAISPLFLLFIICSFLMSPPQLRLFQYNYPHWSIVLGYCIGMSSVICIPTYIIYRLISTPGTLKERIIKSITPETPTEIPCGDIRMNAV
endpoint: log10 Ki (log10 of the value in nM)
Note: values are log10 of Ki expressed in nM.

// solved cases for log10 Ki follow
Exam item: Tell me the measured log10 Ki of `Cc1nc2ccccn2c(=O)c1CCN1CC=C(c2c[nH]c3ccccc23)CC1` , please.
Marked response: 0.20

Exam item: Tell me the measured log10 Ki of `Cc1ncn(C)c(=O)c1CCN1CC=C(c2c[nH]c3ccc(F)cc23)CC1` , please.
Marked response: 0.50

Exam item: Tell me the measured log10 Ki of `CSc1nc(C)c(CCN2CC=C(c3cn(C)c4ccccc34)CC2)c(=O)n1C` , please.
Marked response: 0.90

Exam item: Tell me the measured log10 Ki of `Cc1ccn2c(=O)c(CCN3CC=C(c4c[nH]c5ccc(F)cc45)CC3)c(C)nc2c1` , please.
Marked response: -0.80

Exam item: Tell me the measured log10 Ki of `CSc1nc(C)c(CCN2CC=C(c3c[nH]c4ccccc34)CC2)c(=O)[nH]1` , please.
Marked response: 1.70

// moving on: another record for log10 Ki
Exam item: Tell me the measured log10 Ki of `Cc1nc2sccn2c(=O)c1CCN1CC=C(c2c[nH]c3ccccc23)CC1` , please.
Marked response: 0.40

###

molecular target: dopamine-D2 receptors (Rattus norvegicus); construct: labels dopamine receptors in rat pituitary and brain; from tissue; host or cells: rat pituitary / brain (from the title of the cited method only); test: In vitro affinity for dopamine-D2 receptors ([3H]-spiroperidol receptor binding assay); conditions: read-out: Dopamine-D2 pKi (converted)
Sequence (P61169 whole entry): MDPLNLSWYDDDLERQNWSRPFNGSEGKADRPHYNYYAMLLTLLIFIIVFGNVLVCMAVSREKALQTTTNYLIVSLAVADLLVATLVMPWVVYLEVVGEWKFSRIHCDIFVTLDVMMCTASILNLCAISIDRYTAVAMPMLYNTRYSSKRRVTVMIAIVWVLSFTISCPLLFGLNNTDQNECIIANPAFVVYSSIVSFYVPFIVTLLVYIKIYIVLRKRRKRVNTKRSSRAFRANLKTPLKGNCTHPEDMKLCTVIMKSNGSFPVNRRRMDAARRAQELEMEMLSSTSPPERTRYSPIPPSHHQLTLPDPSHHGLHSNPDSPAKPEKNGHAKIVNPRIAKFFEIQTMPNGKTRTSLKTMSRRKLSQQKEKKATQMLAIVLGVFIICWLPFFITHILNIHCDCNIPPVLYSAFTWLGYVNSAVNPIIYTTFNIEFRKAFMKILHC
// reported Ki per item
Give just the numeric value; nM need not be written.

Exam item: Tell me the measured Ki of `Cc1nc2n(c(=O)c1CCN1CC=C(c3c[nH]c4ccccc34)CC1)CCS2` , please.
Marked response: 15.8

Exam item: Tell me the measured Ki of `Cc1ccn2c(=O)c(CCN3CC=C(c4c[nH]c5ccccc45)CC3)c(C)nc2c1` , please.
Marked response: 7.94

***
Exam item: Tell me the measured Ki of `CCc1ccn2c(=O)c(CCN3CC=C(c4c[nH]c5ccc(F)cc45)CC3)c(C)nc2c1` , please.
Marked response: 10

Exam item: Tell me the measured Ki of `Cc1nc2sccn2c(=O)c1CCN1CC=C(c2c[nH]c3ccccc23)CC1` , please.
Marked response: 10

Exam item: Tell me the measured Ki of `Cc1ncn(C)c(=O)c1CCN1CC=C(c2c[nH]c3ccc(F)cc23)CC1` , please.
Marked response: 50.1

Exam item: Tell me the measured Ki of `CSc1nc(C)c(CCN2CC=C(c3c[nH]c4ccc(F)cc34)CC2)c(=O)n1C` , please.
Marked response: 6.31

###

Structures can show the parent of a compound that is named as a salt.
// reported melting point per item

// solved cases for melting point follow
Exam item: Tell me the measured melting point of Cc1nc2cc(-c3ccccc3)ccn2c(=O)c1CCN1CC=C(c2c[nH]c3ccccc23)CC1 (as salt: salt) [Compound 27] , please.
Marked response: 211 to 224 °C

Exam item: Tell me the measured melting point of CCc1ccn2c(=O)c(CCN3CC=C(c4c[nH]c5ccc(F)cc45)CC3)c(C)nc2c1 (as salt: salt) [Compound 24] , please.
Marked response: 198 to 201 °C

// moving on: another record for melting point
Exam item: Tell me the measured melting point of COc1nc(C)c(CCN2CC=C(c3c[nH]c4ccccc34)CC2)c(=O)n1C (as salt: HCl) [Compound 18] , please.
Marked response: 209 to 211 °C
